biological target: AURKC (human) (UniProt Q9UQB9); experiment: Caliper, Mobility shift assay off-chip; settings: compound 0.1 µM
Sequence (Q9UQB9 whole entry, looked up): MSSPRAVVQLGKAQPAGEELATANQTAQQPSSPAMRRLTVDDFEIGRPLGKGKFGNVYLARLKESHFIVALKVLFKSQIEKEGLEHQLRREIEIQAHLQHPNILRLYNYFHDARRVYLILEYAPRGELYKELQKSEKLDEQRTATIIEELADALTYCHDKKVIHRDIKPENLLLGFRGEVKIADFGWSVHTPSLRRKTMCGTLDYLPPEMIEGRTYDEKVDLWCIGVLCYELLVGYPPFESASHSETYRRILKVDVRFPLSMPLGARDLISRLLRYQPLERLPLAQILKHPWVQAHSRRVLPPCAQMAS
reported.property: inhibition (%)

• O=c1c2cc(CS(=O)(=O)NCc3ccccn3)ccc2ccc2ncc(C3CCNCC3)cc12 = 5.6
• O=C(CCc1ccc2ccc3ncc(C4CCNCC4)cc3c(=O)c2c1)NCc1ccccn1 = 7.5
• Cn1cc(-c2cnc3ccc4ccc(CS(=O)(=O)CCc5ccccn5)cc4c(=O)c3c2)cn1 = 4.3
• Cn1cc(-c2cnc3ccc4ccc(CS(=O)(=O)NCC5CCCCN5)cc4c(=O)c3c2)cn1 (configuration not stated) = 20.9
• Cn1cc(-c2cnc3ccc4ccc(CS(=O)(=O)NC5CCCCC5)cc4c(=O)c3c2)cn1 = 15.4
• CN(c1ccc2ccc3ncc(-c4cnn(C)c4)cc3c(=O)c2c1)S(=O)(=O)NCc1ccccn1 = 31.7
• Cn1cc(-c2cnc3ccc4ccc(CS(N)(=O)=O)cc4c(=O)c3c2)cn1 = 27.7
